- system-name: Bcl-xL, Q07817
- Sequence (Q07817 1-209): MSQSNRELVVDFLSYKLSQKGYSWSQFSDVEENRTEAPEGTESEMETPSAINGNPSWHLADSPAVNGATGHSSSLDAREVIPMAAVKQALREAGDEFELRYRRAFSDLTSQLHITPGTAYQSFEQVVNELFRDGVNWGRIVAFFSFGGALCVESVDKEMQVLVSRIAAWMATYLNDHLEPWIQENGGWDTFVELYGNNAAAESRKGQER
- test-name: peptide SPOT array, c-Myc-tagged receptor at 1 uM or 100 nM, anti-c-Myc-Cy3
metric: SPOT signal as a fraction of Bim BH3's signal on the same receptor and array

See these solved cases before continuing.
1. ASKLKGAAVKLADFGLAIEVEGEQQA [CAMK2A]
0.03
2. VLSRIEAGRSDKSVMDEFGISKSTFY [TIGD7]
0.02
3. ASEASLFEEALEKYGKDFNDIRQDFL [MTA3]
0.02

(a) KCRHEEVVQVLRNAGEEVTLTVSFLK [SNTG1]
(b) AFGLGDLPNLLGLVGDQLGDTERKRR [ADAMTS14]
(c) AIKPVSFIRDLKKILRHFRFGNQEDA [USP36]
Exercise: Write the entries in order, lowest recorded SPOT signal as a fraction of Bim BH3's signal on the same receptor and array first. List labels; respect the requested ordering.
Key: a, b, c
